# method notes: Cell Viability - LYMP2-012 (AID 982);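 also: cellular ATP by luciferase luminescence where a drop means cytotoxicity; cells exposed to compound for one day before reading; nearly all actives have a fitted effect of over 55% in size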
# experimental parameters: LYMP2-012 lymphoblastoid cell viability qHTS; series mostly up to 92.2 µM
Inconclusive results are not listed. Active and inactive are the calls of the source. Calls follow the shape of the dose curve; as a rule, active = well fitted cell-killing curve with a large enough effect; inconclusive = small, poorly fitted or top-dose-only effect; inactive = flat fitted curve, though single readings scatter.
Respond with a class label; see y = active, n = inactive

[
  {
    "compound": "O=C1CCO1",
    "assigned category": "n"
  }
]

Prompt: Query: recorded result category for O=C/C=C/c1ccccc1 in this test
Completion: n

Prompt: Next up: COC1=CC(=O)O[C@@H](/C=C/c2ccccc2)C1
Completion: n

====

# system under test: Atrial natriuretic peptide receptor 2 (Homo sapiens) (UniProt P20594)
# Sequence (P20594 whole entry, looked up): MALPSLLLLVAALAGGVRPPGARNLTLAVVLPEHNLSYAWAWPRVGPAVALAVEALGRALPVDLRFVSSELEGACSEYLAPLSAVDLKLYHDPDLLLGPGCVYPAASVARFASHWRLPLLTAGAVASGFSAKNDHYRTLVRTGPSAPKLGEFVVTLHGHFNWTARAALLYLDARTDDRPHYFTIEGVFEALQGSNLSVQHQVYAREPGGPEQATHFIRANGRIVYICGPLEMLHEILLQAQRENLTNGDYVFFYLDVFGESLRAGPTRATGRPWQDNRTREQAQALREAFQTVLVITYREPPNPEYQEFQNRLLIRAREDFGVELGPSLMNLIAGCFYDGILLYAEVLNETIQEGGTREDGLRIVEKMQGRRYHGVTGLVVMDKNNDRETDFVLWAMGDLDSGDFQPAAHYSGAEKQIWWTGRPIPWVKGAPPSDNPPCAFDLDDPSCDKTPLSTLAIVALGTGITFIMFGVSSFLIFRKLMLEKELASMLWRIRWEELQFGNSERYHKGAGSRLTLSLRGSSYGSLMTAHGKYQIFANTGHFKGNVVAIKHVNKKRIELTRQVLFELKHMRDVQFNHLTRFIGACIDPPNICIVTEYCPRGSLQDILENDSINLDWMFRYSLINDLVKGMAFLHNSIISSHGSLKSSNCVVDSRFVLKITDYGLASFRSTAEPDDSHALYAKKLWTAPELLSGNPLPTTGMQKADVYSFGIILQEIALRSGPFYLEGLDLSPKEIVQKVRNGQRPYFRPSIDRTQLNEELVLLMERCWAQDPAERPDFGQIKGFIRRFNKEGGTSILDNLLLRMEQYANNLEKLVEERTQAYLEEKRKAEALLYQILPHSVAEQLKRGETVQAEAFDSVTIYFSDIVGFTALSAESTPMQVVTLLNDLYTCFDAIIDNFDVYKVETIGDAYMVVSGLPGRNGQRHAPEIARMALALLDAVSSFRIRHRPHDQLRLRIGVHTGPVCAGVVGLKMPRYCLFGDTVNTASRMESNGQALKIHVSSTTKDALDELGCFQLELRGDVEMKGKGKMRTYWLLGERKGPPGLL
# method notes: Natriuretic polypeptide receptor (hNpr2) antagonism - Pilot subtype selectivity assay (AID 1347050)
# experimental parameters: NPR2-expressing cells, cGMP antagonist-mode read-out; series mostly up to 38.3 µM
Results filed as inconclusive are left out. The source made the active and inactive calls. Calls follow the shape of the full dose curve.
Respond with a class label; see yes (active), no (inactive)

Sample answers from the record:
[
  {
    "compound": "CCS(=O)(=O)Nc1cccc(C(=C2CCCCC2)c2cnc[nH]2)c1",
    "system under test": "Atrial natriuretic peptide receptor 2 (Homo sapiens) (UniProt P20594)",
    "assigned category": "no"
  },
  {
    "compound": "N#C/C(=C/c1ccc(O)c(O)c1)C(N)=S",
    "system under test": "Atrial natriuretic peptide receptor 2 (Homo sapiens) (UniProt P20594)",
    "assigned category": "no"
  },
  {
    "compound": "CC(N)Cc1c[nH]c2ccc(O)cc12 (centres undefined)",
    "system under test": "Atrial natriuretic peptide receptor 2 (Homo sapiens) (UniProt P20594)",
    "assigned category": "no"
  }
]

Prompt: Query: recorded result category for CN(N=O)c1ccc(O)c(O)c1 in this test
Completion: no

Prompt: Next up: CCCN(CCC)C1Cc2cc(OC)c(OC)cc2C1
Completion: no

Prompt: Next up: COc1ccc2[nH]c3c(c2c1)CCNC3
Completion: no
